assay-system: UGT1A3 (Homo sapiens, UniProt P35503)
Sequence (P35503 29-534): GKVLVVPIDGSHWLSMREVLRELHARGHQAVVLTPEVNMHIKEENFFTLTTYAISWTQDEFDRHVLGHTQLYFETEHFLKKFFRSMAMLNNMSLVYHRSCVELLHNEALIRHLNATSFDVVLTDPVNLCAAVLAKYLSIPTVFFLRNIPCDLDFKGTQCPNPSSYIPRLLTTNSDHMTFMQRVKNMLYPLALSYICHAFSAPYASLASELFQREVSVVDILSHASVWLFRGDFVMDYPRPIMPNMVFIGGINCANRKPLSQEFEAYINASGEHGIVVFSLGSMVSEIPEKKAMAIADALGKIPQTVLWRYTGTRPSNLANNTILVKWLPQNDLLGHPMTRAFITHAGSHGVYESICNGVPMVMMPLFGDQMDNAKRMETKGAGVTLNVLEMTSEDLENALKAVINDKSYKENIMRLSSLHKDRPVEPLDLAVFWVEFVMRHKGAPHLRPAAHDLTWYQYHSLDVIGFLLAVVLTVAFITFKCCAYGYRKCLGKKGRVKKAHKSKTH
protocol-summary: in vitro
condition-context: pH 7.5, Inhibition of raloxifene glucuronidation, G1, UGT1A3
readout-type: activity at 15 min, 25 µM (%)

| compound | assay-system | activity at 15 min, 25 µM [%] |
| --- | --- | --- |
| COc1cc(C2Oc3cc([C@H]4Oc5cc(O)cc(O)c5C(=O)[C@@H]4O)ccc3OC2CO)ccc1O (some centres unmarked) [Silibinin] | UGT1A3 (Homo sapiens, UniProt P35503) | 58 |
| CCCOC(=O)c1cc(O)c(O)c(O)c1 [Propyl gallate] | UGT1A3 (Homo sapiens, UniProt P35503) | 72 |

* * *

System: UGT enzymes of human liver microsomes
Construct: percentage of control metabolism, 7-HFC glucuronidation; percentage of control metabolism, 7-HFC glucuronidation
protocol-summary: Inhibition of 7-HFC glucuronidation in human liver microsomes
Type: biochemical
condition-context: inhibitor 50 μM; 7-HFC 50 μM, human liver microsomes 100 μg/ml, 15 min
readout-type: % of control metabolism (SD, n = 3), 7-HFC glucuronidation

| molecule | val |
| --- | --- |
| O=C(OC[C@H]1O[C@@H](OC(=O)c2cc(O)c(O)c(OC(=O)c3cc(O)c(O)c(O)c3)c2)[C@H](OC(=O)c2cc(O)c(O)c(OC(=O)c3cc(O)c(O)c(O)c3)c2)[C@@H](OC(=O)c2cc(O)c(O)c(OC(=O)c3cc(O)c(O)c(O)c3)c2)[C@@H]1OC(=O)c1cc(O)c(O)c(OC(=O)c2cc(O)c(O)c(O)c2)c1)c1cc(O)c(O)c(OC(=O)c2cc(O)c(O)c(O)c2)c1 [Tannic acid] | 2 (0) % |

Okay, now this molecule:
Request the reported % of control metabolism (SD, n = 3), 7-HFC glucuronidation associated with CCCCCCCCOC(=O)c1cc(O)c(O)c(O)c1 [Octyl gallate]
65 (0) %

* * *

Tested on: UGT enzymes of human liver microsomes
Construct: residual metabolism (% of control), E2-3-β-D-glucuronide; other: liver 032101; residual metabolism (% of control), E2-3-β-D-glucuronide
protocol-summary: Inhibition of estradiol (E2) glucuronidation in human liver microsomes
Type: biochemical
condition-context: liver 032101; E2 50 μM; inhibitor 100 μM
Entries annotated with measured residual metabolism (% of control), E2-3-β-D-glucuronide

Consider the following illustrative entries.
| compound | assay-system | val |
| --- | --- | --- |
| CCCCCCCCOC(=O)c1cc(O)c(O)c(O)c1 [Octyl gallate] | UGT enzymes of human liver microsomes | 33 (2) % |
| CC/C(=C(/CC)c1ccc(O)cc1)c1ccc(O)cc1 [Diethylstilbestrol, reference compound] | UGT enzymes of human liver microsomes | 69 (1), % |
| O=c1c(O)c(-c2ccc(O)c(O)c2)oc2cc(O)cc(O)c12 | UGT enzymes of human liver microsomes | 10 (1) % |

Sample O=C(O)c1cc(-c2ccc(F)cc2F)ccc1O [Diflunisal, reference compound] — what was its residual metabolism (% of control), E2-3-β-D-glucuronide?
49 (1), obs %

* * *

Below: a set of entries, each annotated with reported % of control metabolism (SD, n = 3), raloxifene glucuronide G2.
Test system: UGT enzymes of human liver microsomes
protocol-summary: Inhibition of raloxifene glucuronidation (G1, G2) in human liver microsomes
Assay type: biochemical
condition-context: G2; inhibitor 500 μM; raloxifene 50 μM, human liver microsomes 250 μg/ml, 15 min

| molecule | assay-system | val |
| --- | --- | --- |
| COc1cc(CNC(=O)CCCCCCC(C)C)ccc1O [Dihydrocapsaicin] | UGT enzymes of human liver microsomes | 26 (1) % |
| CCCCCCCCCCCCCCCC(=O)OC[C@H](O)[C@H]1OC(=O)C(O)=C1O [Ascorbyl palmitate] | UGT enzymes of human liver microsomes | 36 (5) % |
| O=c1c(O)c(-c2ccc(O)c(O)c2)oc2cc(O)cc(O)c12 [Quercetin] | UGT enzymes of human liver microsomes | 0 (0) % |

Could you tell me which % of control metabolism (SD, n = 3), raloxifene glucuronide G2 is on file for C#C[C@]1(O)CC[C@H]2[C@@H]3CCc4cc(O)ccc4[C@H]3CC[C@@]21C [17-α-Ethinylestradiol, 17-α-ethinylestradiol, reference compound] ?
6 (0) %

Tell me the measured % of control metabolism (SD, n = 3), raloxifene glucuronide G2 of CCCCCCCCC(=O)NCc1ccc(O)c(OC)c1 [N-Vanillylnonanamide] , please.
17 (2) %

# get_value(readout='% of control metabolism (SD, n = 3), raloxifene glucuronide G2', item= O=C(O[C@@H]1Cc2c(O)cc(O)cc2O[C@@H]1c1cc(O)c(O)c(O)c1)c1cc(O)c(O)c(O)c1 [Epigallocatechin gallate] )
0 (0) %

So what does the record say about % of control metabolism (SD, n = 3), raloxifene glucuronide G2 for COc1cc(CNC(=O)CCCC/C=C/C(C)C)ccc1O [Capsaicin] ?
33 (3) %

Dear colleague, I am looking for the recorded % of control metabolism (SD, n = 3), raloxifene glucuronide G2 of the following molecule: C[C@]12CC[C@@H]3c4ccc(O)cc4CC[C@H]3[C@@H]1C[C@@H](O)[C@@H]2O [Estriol]
60 (3) %

* * *

assay-system: UGT1A9 (Homo sapiens)
Sequence (O60656 26-530): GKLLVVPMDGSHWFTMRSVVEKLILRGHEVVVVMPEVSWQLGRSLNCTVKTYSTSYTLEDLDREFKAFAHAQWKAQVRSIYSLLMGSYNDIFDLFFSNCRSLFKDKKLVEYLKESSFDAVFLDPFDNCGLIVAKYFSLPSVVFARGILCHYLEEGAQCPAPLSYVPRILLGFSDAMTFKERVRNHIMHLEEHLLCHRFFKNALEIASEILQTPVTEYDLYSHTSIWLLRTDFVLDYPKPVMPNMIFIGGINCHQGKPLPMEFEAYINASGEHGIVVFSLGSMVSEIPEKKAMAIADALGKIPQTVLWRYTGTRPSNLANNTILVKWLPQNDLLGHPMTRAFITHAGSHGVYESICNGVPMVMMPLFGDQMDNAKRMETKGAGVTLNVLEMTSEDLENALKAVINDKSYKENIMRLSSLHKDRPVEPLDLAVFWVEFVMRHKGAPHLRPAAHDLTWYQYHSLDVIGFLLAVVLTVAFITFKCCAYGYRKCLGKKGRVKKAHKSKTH
protocol-summary: Inhibition of raloxifene glucuronidation by recombinant UGT1A9 Supersomes
condition-context: second line (G2, metabolite not given); inhibitor 50 μM; raloxifene 50 μM, 250 μg/ml Supersomes, 1 mM UDPGA, 15 min
readout-type: Inhibition of raloxifene glucuronidation, UGT1A9, second line per inhibitor (G2)

Worked set:
| molecule | val |
| --- | --- |
| COc1c(C)c2c(c(O)c1C/C=C(\C)CCC(=O)O)C(=O)OC2 [Mycophenolic acid, reference compound] | 83 (3) |
| O=C(O[C@@H]1Cc2c(O)cc(O)cc2O[C@H]1c1cc(O)c(O)c(O)c1)c1cc(O)c(O)c(O)c1 [Gallocatechin gallate] | 44 (2) |
| O=c1c(O)c(-c2ccc(O)c(O)c2)oc2cc(O)cc(O)c12 [Quercetin] | 24 (2) |

Dear colleague, I am looking for the recorded Inhibition of raloxifene glucuronidation, UGT1A9, second line per inhibitor (G2) of the following molecule: CCCCCCCCOC(=O)c1cc(O)c(O)c(O)c1 [Octyl gallate]
70 (4)

Which Inhibition of raloxifene glucuronidation, UGT1A9, second line per inhibitor (G2) value belongs to CC/C(=C(/CC)c1ccc(O)cc1)c1ccc(O)cc1 [Diethylstilbestrol, reference compound] ?
245 (3)

Entry under review: O=C(OC[C@H]1O[C@@H](OC(=O)c2cc(O)c(O)c(OC(=O)c3cc(O)c(O)c(O)c3)c2)[C@H](OC(=O)c2cc(O)c(O)c(OC(=O)c3cc(O)c(O)c(O)c3)c2)[C@@H](OC(=O)c2cc(O)c(O)c(OC(=O)c3cc(O)c(O)c(O)c3)c2)[C@@H]1OC(=O)c1cc(O)c(O)c(OC(=O)c2cc(O)c(O)c(O)c2)c1)c1cc(O)c(O)c(OC(=O)c2cc(O)c(O)c(O)c2)c1 [Tannic acid] . Reported Inhibition of raloxifene glucuronidation, UGT1A9, second line per inhibitor (G2)?
42 (5)

What measured Inhibition of raloxifene glucuronidation, UGT1A9, second line per inhibitor (G2) goes with O=C(O[C@@H]1Cc2c(O)cc(O)cc2O[C@@H]1c1cc(O)c(O)c(O)c1)c1cc(O)c(O)c(O)c1 [Epigallocatechin gallate] ?
22 (2)

* * *

assay-system: UGT1A1 (Homo sapiens)
Sequence (P22309 26-533): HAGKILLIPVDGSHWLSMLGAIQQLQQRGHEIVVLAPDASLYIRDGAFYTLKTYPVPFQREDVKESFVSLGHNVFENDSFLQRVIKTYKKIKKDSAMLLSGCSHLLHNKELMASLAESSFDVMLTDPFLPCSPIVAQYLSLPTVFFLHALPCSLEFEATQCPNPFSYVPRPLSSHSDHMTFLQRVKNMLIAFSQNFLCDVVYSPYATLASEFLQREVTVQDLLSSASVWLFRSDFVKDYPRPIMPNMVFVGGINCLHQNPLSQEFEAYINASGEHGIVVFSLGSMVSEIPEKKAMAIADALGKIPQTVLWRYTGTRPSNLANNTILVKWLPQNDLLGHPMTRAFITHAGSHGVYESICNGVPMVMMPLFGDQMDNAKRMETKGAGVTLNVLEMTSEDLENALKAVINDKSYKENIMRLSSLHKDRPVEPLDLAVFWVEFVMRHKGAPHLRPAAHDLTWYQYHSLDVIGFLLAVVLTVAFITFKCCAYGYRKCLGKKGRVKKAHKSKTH
protocol-summary: in vitro
condition-context: pH 7.5, % of control metabolism, raloxifene G1
readout-type: activity at 15 min, 50 µM (%)

Solved entries (count: 4):
| compound | activity at 15 min, 50 µM / % |
| --- | --- |
| CCCOC(=O)c1cc(O)c(O)c(O)c1 [Propyl gallate] | 72 |
| COc1c(C)c2c(c(O)c1C/C=C(\C)CCC(=O)O)C(=O)OC2 [Mycophenolic acid, reference compound] | 90 |
| O=C(O[C@@H]1Cc2c(O)cc(O)cc2O[C@@H]1c1ccc(O)c(O)c1)c1cc(O)c(O)c(O)c1 [Epicatechin gallate] | 23 |
| O=c1c(O)c(-c2ccc(O)c(O)c2)oc2cc(O)cc(O)c12 | 2 |

[1] O=C(O)c1cc(-c2ccc(F)cc2F)ccc1O [Diflunisal, reference compound]
[2] O=C(O)Cc1ccccc1Nc1c(Cl)cccc1Cl [Diclofenac, reference compound]
[3] COc1cc(C2Oc3cc([C@H]4Oc5cc(O)cc(O)c5C(=O)[C@@H]4O)ccc3OC2CO)ccc1O (stereo partly shown)
Highest activity at 15 min, 50 µM first, then in falling order down to the smallest. Your task in answering is to list the labels in the requested order.
2, 1, 3
